biological target: DNA topoisomerase 2-alpha (Homo sapiens, UniProt P11388); test: Inhibition of DNA topoisomerase 2 alpha (unknown origin) measured by topoisomerase-mediated DNA relaxation assay
Sequence (P11388 whole entry): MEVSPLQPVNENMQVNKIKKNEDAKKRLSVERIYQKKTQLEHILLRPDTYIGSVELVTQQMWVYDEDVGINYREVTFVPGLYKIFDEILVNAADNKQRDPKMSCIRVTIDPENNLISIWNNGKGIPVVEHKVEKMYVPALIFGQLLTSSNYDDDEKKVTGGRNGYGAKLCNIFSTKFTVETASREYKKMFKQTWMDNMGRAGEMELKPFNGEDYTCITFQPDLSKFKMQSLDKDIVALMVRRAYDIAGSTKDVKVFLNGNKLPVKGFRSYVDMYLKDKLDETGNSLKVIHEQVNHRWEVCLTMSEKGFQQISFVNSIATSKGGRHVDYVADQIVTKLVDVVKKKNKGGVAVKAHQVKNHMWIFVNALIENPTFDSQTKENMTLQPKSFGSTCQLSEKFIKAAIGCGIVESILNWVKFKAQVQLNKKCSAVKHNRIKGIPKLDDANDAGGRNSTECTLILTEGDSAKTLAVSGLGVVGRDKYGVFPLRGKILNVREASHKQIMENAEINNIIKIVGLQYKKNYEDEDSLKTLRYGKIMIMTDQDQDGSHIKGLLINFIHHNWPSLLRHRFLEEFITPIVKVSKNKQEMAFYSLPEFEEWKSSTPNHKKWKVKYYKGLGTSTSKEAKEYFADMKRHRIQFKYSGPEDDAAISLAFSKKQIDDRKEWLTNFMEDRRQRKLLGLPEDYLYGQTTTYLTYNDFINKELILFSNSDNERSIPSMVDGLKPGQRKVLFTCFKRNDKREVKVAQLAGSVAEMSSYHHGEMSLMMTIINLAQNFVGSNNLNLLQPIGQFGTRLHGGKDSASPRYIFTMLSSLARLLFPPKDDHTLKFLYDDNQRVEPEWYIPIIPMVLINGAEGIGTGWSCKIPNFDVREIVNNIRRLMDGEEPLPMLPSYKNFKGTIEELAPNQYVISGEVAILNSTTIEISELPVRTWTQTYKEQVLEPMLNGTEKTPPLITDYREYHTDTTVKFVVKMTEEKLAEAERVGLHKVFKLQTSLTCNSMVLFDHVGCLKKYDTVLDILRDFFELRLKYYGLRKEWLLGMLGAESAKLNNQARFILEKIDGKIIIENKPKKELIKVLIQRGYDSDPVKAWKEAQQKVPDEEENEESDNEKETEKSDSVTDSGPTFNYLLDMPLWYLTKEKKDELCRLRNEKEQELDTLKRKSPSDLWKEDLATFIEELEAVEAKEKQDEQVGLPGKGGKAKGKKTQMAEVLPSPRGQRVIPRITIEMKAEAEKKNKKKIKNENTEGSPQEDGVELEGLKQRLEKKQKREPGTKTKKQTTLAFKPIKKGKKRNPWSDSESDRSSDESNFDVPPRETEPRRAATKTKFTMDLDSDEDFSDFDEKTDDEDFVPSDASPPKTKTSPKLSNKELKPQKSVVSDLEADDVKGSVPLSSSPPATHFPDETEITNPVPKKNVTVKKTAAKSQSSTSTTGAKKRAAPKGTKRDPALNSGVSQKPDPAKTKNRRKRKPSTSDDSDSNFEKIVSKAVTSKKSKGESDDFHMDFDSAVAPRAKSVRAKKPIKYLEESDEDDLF
property: IC50

GET /values?readout=IC50&item= COc1cc([C@@H]2c3cc4c(cc3[C@@H](NC(=O)c3cn(-c5ccc(Cl)cc5)nn3)[C@H]3COC(=O)[C@H]23)OCO4)cc(OC)c1OC < 1 µM

---

Listed here: items and their measured GI50.
test system: WM793; assay: Antiproliferative activity against human WM793 cells incubated for 72 hrs and measured by MTT assay; format: functional

{"columns": ["entry smiles", "GI50"],
 "data": [
  ["Cc1c(C(=O)Nc2ccc(SC#N)cc2)nnn1-c1ccc(C(C)C)cc1", "> 100 µM"],
  ["Cc1ccc(Cl)c(-n2nnc(C(=O)Nc3ccc(SC#N)cc3)c2C)c1", "> 100 µM"]
]}

// switching to the query compound
GET /values?readout=GI50&item= COc1cccc(-n2nnc(C(=O)Nc3ccc(SC#N)cc3)c2C)c1 > 100 µM
